Quick list: residual kinase activity, MARK3 per entry.
# Measured on: UniProt P27448
# Sequence (P27448 whole entry, species assumed): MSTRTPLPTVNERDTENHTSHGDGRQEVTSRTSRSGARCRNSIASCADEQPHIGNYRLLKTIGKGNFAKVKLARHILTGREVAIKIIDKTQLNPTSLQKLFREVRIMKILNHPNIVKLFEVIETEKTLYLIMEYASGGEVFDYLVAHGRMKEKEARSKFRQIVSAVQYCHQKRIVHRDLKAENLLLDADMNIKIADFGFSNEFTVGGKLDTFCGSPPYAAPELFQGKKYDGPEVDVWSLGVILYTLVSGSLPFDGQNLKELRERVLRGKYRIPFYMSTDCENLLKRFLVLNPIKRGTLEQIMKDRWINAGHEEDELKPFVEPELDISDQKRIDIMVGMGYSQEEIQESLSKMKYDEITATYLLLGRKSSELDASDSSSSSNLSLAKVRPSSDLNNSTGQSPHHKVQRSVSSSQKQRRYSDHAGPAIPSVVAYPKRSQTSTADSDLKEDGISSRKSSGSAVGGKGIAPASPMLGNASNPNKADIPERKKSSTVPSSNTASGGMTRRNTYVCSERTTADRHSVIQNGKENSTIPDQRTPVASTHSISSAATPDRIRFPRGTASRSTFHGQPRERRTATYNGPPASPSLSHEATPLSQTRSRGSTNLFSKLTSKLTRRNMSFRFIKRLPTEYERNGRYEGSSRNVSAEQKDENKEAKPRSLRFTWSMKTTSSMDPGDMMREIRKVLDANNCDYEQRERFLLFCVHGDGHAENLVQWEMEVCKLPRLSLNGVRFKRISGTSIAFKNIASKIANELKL
# Test method notes: Kinase profiling MARK3
# Format: biochemical
# Study conditions: 100 micromolar inhibitor concentration; 100 is no change
Reply with the value as a number alone.

Q: Data request, read-out residual kinase activity, MARK3, for O=C(Nc1nc2ccc(O)cc2s1)c1cccnc1
Result: 65

Q: Data request, read-out residual kinase activity, MARK3, for COc1ccc2sc(NC(=O)c3cccc(C(N)=O)c3)nc2c1
Result: 101

Q: Data request, read-out residual kinase activity, MARK3, for O=C(Nc1nc2cc(O)ccc2s1)c1ccccc1
Result: 63

Q: Data request, read-out residual kinase activity, MARK3, for O=C(Nc1nc2ccc(F)cc2s1)c1ccccc1
Result: 109

Q: Data request, read-out residual kinase activity, MARK3, for N#Cc1ccc2nc(NC(=O)c3ccccc3)sc2c1
Result: 98

Q: Data request, read-out residual kinase activity, MARK3, for O=C(Nc1nc2ccc(O)cc2s1)c1ccccc1
Result: 33

* * *

# Measured on: JNK2 (Homo sapiens)
# Sequence (P45984 whole entry, species assumed): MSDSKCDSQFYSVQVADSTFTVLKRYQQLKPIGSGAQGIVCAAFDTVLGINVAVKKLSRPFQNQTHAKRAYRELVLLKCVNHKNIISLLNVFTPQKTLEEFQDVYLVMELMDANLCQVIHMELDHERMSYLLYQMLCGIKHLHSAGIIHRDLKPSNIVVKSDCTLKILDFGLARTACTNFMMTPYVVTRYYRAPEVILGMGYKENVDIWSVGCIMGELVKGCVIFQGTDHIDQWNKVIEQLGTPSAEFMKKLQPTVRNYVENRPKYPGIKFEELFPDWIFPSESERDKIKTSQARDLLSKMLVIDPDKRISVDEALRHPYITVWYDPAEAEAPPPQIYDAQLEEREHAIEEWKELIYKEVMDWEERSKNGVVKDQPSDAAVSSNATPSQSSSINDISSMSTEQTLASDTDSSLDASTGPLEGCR
# Test method notes: Kinase profiling JNK2
# Format: biochemical
# Study conditions: 100 micromolar inhibitor concentration; 100 is no change
Value kind: residual kinase activity, JNK2

Below are worked cases with known answers.
Compound structure string: COc1ccc2sc(NC(=O)c3ccc(NC(C)=O)cc3)nc2c1
Measured on: JNK2 (Homo sapiens)
residual kinase activity, JNK2: 99

Compound structure string: O=C(Nc1nc2cc(O)ccc2s1)c1ccccn1
Measured on: JNK2 (Homo sapiens)
residual kinase activity, JNK2: 103

Q: Data request, read-out residual kinase activity, JNK2, for CC(=O)Nc1cccc(C(=O)Nc2nc3cc(O)ccc3s2)c1
Result: 93

Q: Data request, read-out residual kinase activity, JNK2, for CC(=O)Nc1nc2cc(C)ccc2s1
Result: 105

Q: Data request, read-out residual kinase activity, JNK2, for CC(=O)Nc1ccccc1C(=O)Nc1nc2ccc(O)cc2s1
Result: 93

Q: Data request, read-out residual kinase activity, JNK2, for CC(=O)Nc1cccc(C(=O)Nc2nc3ccc(O)cc3s2)c1
Result: 99

* * *

Quick list: residual kinase activity, p38a MAPK per entry.
# Measured on: p38a MAPK (Homo sapiens)
# Sequence (Q16539 whole entry): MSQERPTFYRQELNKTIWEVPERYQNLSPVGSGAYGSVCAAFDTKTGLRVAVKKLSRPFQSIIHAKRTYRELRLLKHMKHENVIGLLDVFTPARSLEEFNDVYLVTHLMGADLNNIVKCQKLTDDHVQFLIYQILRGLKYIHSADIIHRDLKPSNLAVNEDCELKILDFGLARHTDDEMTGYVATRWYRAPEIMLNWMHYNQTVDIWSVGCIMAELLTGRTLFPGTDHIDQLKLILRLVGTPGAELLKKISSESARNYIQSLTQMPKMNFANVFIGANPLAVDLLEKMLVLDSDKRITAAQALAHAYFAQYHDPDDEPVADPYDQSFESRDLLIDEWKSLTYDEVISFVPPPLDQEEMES
# Test method notes: Kinase profiling p38a MAPK
# Assay type: biochemical
# Study conditions: 100 micromolar inhibitor concentration; 100 is no change
Reply with the value as a number alone.

Compound: COc1ccc2sc(NC(=O)c3cccc(NC(C)=O)c3)nc2c1 [MS:LY-2-85]
Measured on: p38a MAPK (Homo sapiens)
residual kinase activity, p38a MAPK: 89

Read the next record carefully.
Q: Data request, read-out residual kinase activity, p38a MAPK, for O=C(Nc1nc2cc(O)ccc2s1)c1ccccn1 [Compound 03-13]
Result: 96

* * *

# Measured on: RSK1 (Homo sapiens, UniProt Q15418)
# Sequence (Q15418 whole entry, species assumed): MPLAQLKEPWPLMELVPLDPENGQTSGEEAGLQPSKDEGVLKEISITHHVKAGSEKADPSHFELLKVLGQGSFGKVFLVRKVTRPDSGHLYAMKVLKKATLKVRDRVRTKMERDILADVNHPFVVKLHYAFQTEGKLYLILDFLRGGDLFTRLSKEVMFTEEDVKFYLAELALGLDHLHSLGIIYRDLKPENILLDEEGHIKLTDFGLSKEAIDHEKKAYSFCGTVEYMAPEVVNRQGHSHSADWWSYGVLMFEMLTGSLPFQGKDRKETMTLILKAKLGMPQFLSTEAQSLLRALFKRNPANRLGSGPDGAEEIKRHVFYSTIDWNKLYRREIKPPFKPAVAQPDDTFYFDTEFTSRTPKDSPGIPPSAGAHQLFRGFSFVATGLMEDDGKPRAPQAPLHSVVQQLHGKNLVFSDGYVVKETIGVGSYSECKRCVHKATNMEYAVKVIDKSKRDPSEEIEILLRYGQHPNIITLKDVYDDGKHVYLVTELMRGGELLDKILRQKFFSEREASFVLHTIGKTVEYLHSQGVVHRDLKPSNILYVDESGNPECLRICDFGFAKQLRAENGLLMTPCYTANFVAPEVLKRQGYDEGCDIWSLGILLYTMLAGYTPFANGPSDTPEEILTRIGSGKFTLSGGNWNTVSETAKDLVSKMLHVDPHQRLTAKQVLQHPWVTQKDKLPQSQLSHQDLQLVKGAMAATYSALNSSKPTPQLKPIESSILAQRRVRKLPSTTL
# Test method notes: Kinase profiling RSK1
# Type: biochemical
# Study conditions: 100 micromolar inhibitor concentration; 100 is no change
Value kind: residual kinase activity, RSK1

Molecule: COc1ccc2sc(NC(=O)c3cccc(NC(C)=O)c3)nc2c1
Experimental result: 54
//
Molecule: CC(=O)NC(C)C(=O)Nc1nc2ccc(C(F)(F)F)cc2s1 (stereo not drawn)
Experimental result: 90
//
Molecule: COC(=O)c1cccc(C(=O)Nc2nc3ccc(F)cc3s2)c1
Experimental result: 70
//
Molecule: O=C(Nc1nc2ccc(O)cc2s1)c1ccccc1
Experimental result: 28
//
Molecule: O=C(Nc1nc2cc(O)ccc2s1)c1ccccn1
Experimental result: 70

Q: Data request, read-out residual kinase activity, RSK1, for O=C(Nc1nc2ccc(O)cc2s1)c1ccncc1
Result: 47
